system_under_test: T1, Human IL2Rγ extracellular domain expressed with a C-terminal myc-myc-hexahistidine tag (human)
T1 construct: also called hIL-2Rg-MMH; hIL-2RG-MMH
T1 chain: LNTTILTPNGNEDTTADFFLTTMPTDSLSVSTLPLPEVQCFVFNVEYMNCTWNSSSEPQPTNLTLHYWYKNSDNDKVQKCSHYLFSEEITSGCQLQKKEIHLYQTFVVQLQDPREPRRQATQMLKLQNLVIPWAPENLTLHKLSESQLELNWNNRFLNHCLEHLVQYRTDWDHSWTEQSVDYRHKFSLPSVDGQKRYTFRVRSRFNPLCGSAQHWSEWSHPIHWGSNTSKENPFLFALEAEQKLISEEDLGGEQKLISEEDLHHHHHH
measurement_notes: SPR Biacore 4000, mAb captured by anti-hFc, HBS-ET, 37C
endpoint_label: Kd (nM)
Numbers only; they are read as nM.

-- ask For H4H12889P (antibody, human IgG4 S228P, kappa, V domains shown, anti-IL2Rγ monoclonal antibody expressed with human IgG4 Fc; also called REGN7257) VH: EVQLVESGGGLVQPGGSLRLSCAASGFIFSSYEMHWVRQAPGKGLEWISYISSSGTTIYYADSVKGRFTISRDNAKNSLYLHMNSLRAEDTAVYYCTRARITGTFDVFDIWGQGTMVTVSS VL: DIQMTQSPSSLSASVGDRVTITCRASQSISSYLNWYQQKPGKAPKLLIFAASNLQSGVPSRFSGSRSGTDFTLTISSLQPEDFATYYCQQNYNIPYTFGQGTKLEIKR , write its Kd.
-- reply 3.99

Values compiled from patent US20200247894A1.
